# controlling effect on Digitaria sanguinalis values compiled below
# Test system: Digitaria sanguinalis
# experiment: Field test for weed control in a corn field
# Type: in vivo
# conditions: 150 g(a.i.)/ha, 21 days after treatments
Give the figure by itself; no unit, no explanation.

Fill blank: measured controlling effect on Digitaria sanguinalis of the compound Cc1cccc(C(=O)NCc2cc(F)cc(Cl)c2)n1 is ____.
1

Fill blank: measured controlling effect on Digitaria sanguinalis of the compound Cc1cccc(CNC(=O)c2cccc(C)c2)c1 [Compound B14, 3-methyl-N-(3-methylbenzyl)benzamide] is ____.
1

Fill blank: measured controlling effect on Digitaria sanguinalis of the compound Cc1cccc(C(=O)NCc2ccc(F)c(Cl)c2)n1 is ____.
1

Next:
Fill blank: measured controlling effect on Digitaria sanguinalis of the compound Cc1cccc(C(=O)NCc2cc(Cl)cc(Cl)c2)c1 is ____.
1

====

# Tested on: Acalypha australis
# experiment: Field test for weed control in a corn field
# Assay type: in vivo
# conditions: 150 g a.i./ha, after treatment
# Post-emergence weed control effect, Acalypha australis values compiled below

Fill blank: measured Post-emergence weed control effect, Acalypha australis of the compound Cc1cccc(CNC(=O)c2cccc(C)c2)c1 [Compound B14, 3-methyl-N-(3-methylbenzyl)benzamide] is ____.
1

Fill blank: measured Post-emergence weed control effect, Acalypha australis of the compound COc1ccc(OC)c(C(=O)NCc2cc(Cl)cc(Cl)c2)c1 is ____.
1

====

# Post-emergence weed control effect, Acalypha australis values compiled below
# Test system: Acalypha australis
# experiment: Field test for weed control in a corn field
# Type: in vivo
# conditions: 150 g a.i./ha, after treatment

Before answering, review these 2 worked examples.
Fill blank: measured Post-emergence weed control effect, Acalypha australis of the molecule COc1ncccc1C(=O)NCc1cccc(C)c1 is ____.
1

Fill blank: measured Post-emergence weed control effect, Acalypha australis of the molecule Cc1ccc(CNC(=O)c2cccc(C)c2)cc1 is ____.
1

Next:
Fill blank: measured Post-emergence weed control effect, Acalypha australis of the molecule COc1ncccc1C(=O)NCc1cc(F)cc(Cl)c1 is ____.
1

Fill blank: measured Post-emergence weed control effect, Acalypha australis of the molecule Cc1cccc(C(=O)NCc2cccc(F)c2)n1 is ____.
1

Fill blank: measured Post-emergence weed control effect, Acalypha australis of the molecule Cc1cccc(C(=O)NCc2cc(Cl)cc(Cl)c2)c1 is ____.
1

Fill blank: measured Post-emergence weed control effect, Acalypha australis of the molecule Cc1cccc(C(=O)NCc2cc(F)cc(Cl)c2)n1 is ____.
1

Fill blank: measured Post-emergence weed control effect, Acalypha australis of the molecule Cc1cccc(C(=O)NCc2ccc(F)c(Cl)c2)n1 is ____.
1

====

# Herbicidal Activity Digitaria sanguinalis values compiled below
# Test system: Digitaria sanguinalis
# experiment: Herbicidal activity test for indoor pre-emergence soil treatment
# Format: in vivo
# Parameters: key: 1-9 levels; higher = more weed remaining vs blank control
# conditions: 150 g a.i./ha, visual inspection 21 days after treatment

Provide value of Herbicidal Activity Digitaria sanguinalis for this record tested with Digitaria sanguinalis: Cc1cccc(C(=O)NCc2cccc(F)c2)n1
1

Provide value of Herbicidal Activity Digitaria sanguinalis for this record tested with Digitaria sanguinalis: Cc1ccc(CNC(=O)c2cccc(C)c2)cc1
1

For the next question, use this compound.
Provide value of Herbicidal Activity Digitaria sanguinalis for this record tested with Digitaria sanguinalis: Cc1cccc(C(=O)NCc2ccc(F)c(Cl)c2)n1
1
